Field: IC50. Provide a value for each of the compounds that follow.
tested on: A549; assay: MTT assay, NSCLC cell line; type: cell-based; details: Homo sapiens; MTT assay
Numbers only, in nM.

[
  {
    "smiles string": "CC(=O)O[C@H]1C(=O)[C@@]2(C)[C@H]([C@H](OC(=O)c3ccccc3)[C@]3(O)C[C@H](OC(=O)[C@H](O)[C@@H](NC(=O)c4ccccc4)c4ccccc4)C(C)=C1C3(C)C)[C@]1(OC(C)=O)CO[C@@H]1C[C@@H]2O",
    "IC50 / nM": 90
  },
  {
    "smiles string": "CC(=O)O[C@@]12CO[C@@H]1C[C@H](O)[C@@]1(C)C(=O)[C@H](O)C3=C(C)[C@@H](OC(=O)[C@H](O)[C@@H](NC(=O)OC(C)(C)C)c4ccccc4)C[C@@](O)([C@@H](OC(=O)c4ccccc4)[C@H]21)C3(C)C",
    "IC50 / nM": 4.5
  }
]

Next, consider the following compound.
### Prompt Name the reported IC50 value associated with the compound CC(C)c1nc(CN(C)C(=O)N[C@H](C(=O)N[C@@H](Cc2ccccc2)C[C@H](O)[C@H](Cc2ccccc2)NC(=O)OCc2cncs2)C(C)C)cs1
### Response 35000
